# System: Staphylococcus aureus
# test_name: Antibacterial activity against Staphylococcus aureus ATCC 29213 after 24 hrs by CLSI based broth micro dilution method
# Type: functional
Listed compounds paired with reported MIC
parameter_measured: MIC (µg/mL)

compound	parameter_measured	test_value
C=C[C@]1(C)C[C@@H](OC(=O)CSc2ccccc2NC(=O)Cn2cc(CN3CCN(c4cccc(C)c4)CC3)nn2)[C@]2(C)[C@H](C)CC[C@]3(CCC(=O)[C@H]32)[C@@H](C)[C@@H]1O	MIC	1
C=C[C@]1(C)C[C@@H](OC(=O)CSc2ccccc2NC(=O)Cn2cc(CN3CCN(c4ccccc4F)CC3)nn2)[C@]2(C)[C@H](C)CC[C@]3(CCC(=O)[C@H]32)[C@@H](C)[C@@H]1O	MIC	0.5
C=C[C@]1(C)C[C@@H](OC(=O)CSc2ccccc2NC(=O)Cn2cc(CN3CCN(C)CC3)nn2)[C@]2(C)[C@H](C)CC[C@]3(CCC(=O)[C@H]32)[C@@H](C)[C@@H]1O	MIC	0.25
C=C[C@]1(C)C[C@@H](OC(=O)CSc2ccccc2NC(=O)Cn2cc(CN3CCN(c4cccc([N+](=O)[O-])c4)CC3)nn2)[C@]2(C)[C@H](C)CC[C@]3(CCC(=O)[C@H]32)[C@@H](C)[C@@H]1O	MIC	0.25
C=C[C@]1(C)C[C@@H](OC(=O)CSc2ccccc2NC(=O)Cn2cc(CN3CCN(c4ccccc4O)CC3)nn2)[C@]2(C)[C@H](C)CC[C@]3(CCC(=O)[C@H]32)[C@@H](C)[C@@H]1O	MIC	1
C=C[C@]1(C)C[C@@H](OC(=O)CSc2ccccc2NC(=O)Cn2cc(CN3CCN(c4ccc([N+](=O)[O-])cc4)CC3)nn2)[C@]2(C)[C@H](C)CC[C@]3(CCC(=O)[C@H]32)[C@@H](C)[C@@H]1O	MIC	0.125
C=C[C@]1(C)C[C@@H](OC(=O)CSc2ccccc2NC(=O)Cn2cc(CN3CCN(c4ccc(Cl)cc4)CC3)nn2)[C@]2(C)[C@H](C)CC[C@]3(CCC(=O)[C@H]32)[C@@H](C)[C@@H]1O	MIC	1
C=C[C@]1(C)C[C@@H](OC(=O)CSCCN(CC)CC)[C@]2(C)[C@H](C)CC[C@]3(CCC(=O)[C@H]32)[C@@H](C)[C@@H]1O [TIAMULIN]	MIC	0.5
C=C[C@]1(C)C[C@@H](OC(=O)CSc2ccccc2NC(=O)Cn2cc(CN3CCCC(CO)C3)nn2)[C@]2(C)[C@H](C)CC[C@]3(CCC(=O)[C@H]32)[C@@H](C)[C@@H]1O (some centres undefined)	MIC	0.5

====

# tested_target: UniProt P08684
# Sequence (P08684 whole entry): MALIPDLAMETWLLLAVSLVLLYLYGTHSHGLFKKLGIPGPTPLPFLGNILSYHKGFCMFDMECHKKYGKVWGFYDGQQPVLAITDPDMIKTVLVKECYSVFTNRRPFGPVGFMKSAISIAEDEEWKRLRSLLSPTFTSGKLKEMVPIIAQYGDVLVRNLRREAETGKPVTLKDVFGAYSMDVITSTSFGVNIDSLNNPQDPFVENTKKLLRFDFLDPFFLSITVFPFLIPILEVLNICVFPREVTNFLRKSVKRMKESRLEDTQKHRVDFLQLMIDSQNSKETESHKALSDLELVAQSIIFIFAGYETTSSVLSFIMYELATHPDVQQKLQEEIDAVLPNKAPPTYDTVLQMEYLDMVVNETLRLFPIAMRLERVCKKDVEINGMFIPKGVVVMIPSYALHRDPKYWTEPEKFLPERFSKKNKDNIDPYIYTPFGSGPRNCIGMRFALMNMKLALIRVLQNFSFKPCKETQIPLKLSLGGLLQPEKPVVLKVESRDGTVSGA
parameter_measured: IC50

structure_as_smiles	tested_target	test_value
C=C[C@]1(C)C[C@@H](OC(=O)CSc2ccccc2NC(=O)Cn2cc(CN(C)C)nn2)[C@]2(C)[C@H](C)CC[C@]3(CCC(=O)[C@H]32)[C@@H](C)[C@@H]1O	UniProt P08684	6.15 µM

====

# Tested on: Staphylococcus aureus
# test_name: Antibacterial activity against Staphylococcus aureus ATCC 29213 after 24 hrs by CLSI based broth micro dilution method
# Assay type: functional
Listing of recorded MIC by entry.
parameter_measured: MIC (µg/mL)

compound	unit_text	test_value
C=C[C@]1(C)C[C@@H](OC(=O)CSc2ccccc2NC(=O)Cn2cc(CN3CCN(c4cccc(O)c4)CC3)nn2)[C@]2(C)[C@H](C)CC[C@]3(CCC(=O)[C@H]32)[C@@H](C)[C@@H]1O	µg/mL	0.25
C=C[C@]1(C)C[C@@H](OC(=O)CSc2ccccc2NC(=O)Cn2cc(CN3CCC(O)CC3)nn2)[C@]2(C)[C@H](C)CC[C@]3(CCC(=O)[C@H]32)[C@@H](C)[C@@H]1O	µg/mL	1
C=C[C@]1(C)C[C@@H](OC(=O)CSc2ccccc2NC(=O)Cn2cc(CN3CCN(c4ccccc4OC)CC3)nn2)[C@]2(C)[C@H](C)CC[C@]3(CCC(=O)[C@H]32)[C@@H](C)[C@@H]1O	µg/mL	1
C=C[C@]1(C)C[C@@H](OC(=O)CSc2ccccc2NC(=O)Cn2cc(CN(CC)CC)nn2)[C@]2(C)[C@H](C)CC[C@]3(CCC(=O)[C@H]32)[C@@H](C)[C@@H]1O	µg/mL	0.25
C=C[C@]1(C)C[C@@H](OC(=O)CSc2ccccc2NC(=O)Cn2cc(CN3CCN(c4ccccc4Cl)CC3)nn2)[C@]2(C)[C@H](C)CC[C@]3(CCC(=O)[C@H]32)[C@@H](C)[C@@H]1O	µg/mL	1
C=C[C@]1(C)C[C@@H](OC(=O)CO)[C@]2(C)[C@H](C)CC[C@]3(CCC(=O)[C@H]32)[C@@H](C)[C@@H]1O [PLEUROMULIN]	µg/mL	1
C=C[C@]1(C)C[C@@H](OC(=O)CSc2ccccc2NC(=O)Cn2cc(CN(C)C)nn2)[C@]2(C)[C@H](C)CC[C@]3(CCC(=O)[C@H]32)[C@@H](C)[C@@H]1O	µg/mL	0.25
C=C[C@]1(C)C[C@@H](OC(=O)CSc2ccccc2NC(=O)Cn2cc(CN3CCN(c4ccc(F)cc4)CC3)nn2)[C@]2(C)[C@H](C)CC[C@]3(CCC(=O)[C@H]32)[C@@H](C)[C@@H]1O	µg/mL	0.5
C=C[C@]1(C)C[C@@H](OC(=O)CSc2ccccc2NC(=O)Cn2cc(CN3CCN(c4ccccc4[N+](=O)[O-])CC3)nn2)[C@]2(C)[C@H](C)CC[C@]3(CCC(=O)[C@H]32)[C@@H](C)[C@@H]1O	µg/mL	0.25
C=C[C@]1(C)C[C@@H](OC(=O)CSc2ccccc2NC(=O)Cn2cc(CN3CCC(CCO)CC3)nn2)[C@]2(C)[C@H](C)CC[C@]3(CCC(=O)[C@H]32)[C@@H](C)[C@@H]1O	µg/mL	0.5
C=C[C@]1(C)C[C@@H](OC(=O)CSc2ccccc2NC(=O)Cn2cc(CN3CCN(c4ccc(OC)cc4)CC3)nn2)[C@]2(C)[C@H](C)CC[C@]3(CCC(=O)[C@H]32)[C@@H](C)[C@@H]1O	µg/mL	0.5
C=C[C@]1(C)C[C@@H](OC(=O)CSc2ccccc2NC(=O)Cn2cc(CN3CCCC3)nn2)[C@]2(C)[C@H](C)CC[C@]3(CCC(=O)[C@H]32)[C@@H](C)[C@@H]1O	µg/mL	0.25
C=C[C@]1(C)C[C@@H](OC(=O)CSc2ccccc2NC(=O)Cn2cc(CN3CCN(c4ccc(O)cc4)CC3)nn2)[C@]2(C)[C@H](C)CC[C@]3(CCC(=O)[C@H]32)[C@@H](C)[C@@H]1O	µg/mL	2
C=C[C@]1(C)C[C@@H](OC(=O)CSc2ccccc2NC(=O)Cn2cc(CN3CCN(c4cccc(F)c4)CC3)nn2)[C@]2(C)[C@H](C)CC[C@]3(CCC(=O)[C@H]32)[C@@H](C)[C@@H]1O	µg/mL	0.5
C=C[C@]1(C)C[C@@H](OC(=O)CSc2ccccc2NC(=O)Cn2cc(CN3CCOCC3)nn2)[C@]2(C)[C@H](C)CC[C@]3(CCC(=O)[C@H]32)[C@@H](C)[C@@H]1O	µg/mL	0.5
C=C[C@]1(C)C[C@@H](OC(=O)CSc2ccccc2NC(=O)Cn2cc(CN3CCCCC3)nn2)[C@]2(C)[C@H](C)CC[C@]3(CCC(=O)[C@H]32)[C@@H](C)[C@@H]1O	µg/mL	0.5
C=C[C@]1(C)C[C@@H](OC(=O)CSc2ccccc2NC(=O)Cn2cc(CN3CCN(c4ccccc4)CC3)nn2)[C@]2(C)[C@H](C)CC[C@]3(CCC(=O)[C@H]32)[C@@H](C)[C@@H]1O	µg/mL	0.5
C=C[C@]1(C)C[C@@H](OC(=O)CSc2ccccc2NC(=O)Cn2cc(CN3CCN(c4ccccc4C)CC3)nn2)[C@]2(C)[C@H](C)CC[C@]3(CCC(=O)[C@H]32)[C@@H](C)[C@@H]1O	µg/mL	1
C=C[C@]1(C)C[C@@H](OC(=O)CSc2ccccc2NC(=O)Cn2cc(CN3CCN(c4cccc(Cl)c4)CC3)nn2)[C@]2(C)[C@H](C)CC[C@]3(CCC(=O)[C@H]32)[C@@H](C)[C@@H]1O	µg/mL	1
C=C[C@]1(C)C[C@@H](OC(=O)CSc2ccccc2NC(=O)Cn2cc(CN3CCN(c4ccc(C)cc4)CC3)nn2)[C@]2(C)[C@H](C)CC[C@]3(CCC(=O)[C@H]32)[C@@H](C)[C@@H]1O	µg/mL	0.5
